tgt: T1, Bdf1 bromodomain 1 (GST-tagged, WT) (Saccharomyces cerevisiae (strain ATCC …, UniProt P35817))
T1 chain: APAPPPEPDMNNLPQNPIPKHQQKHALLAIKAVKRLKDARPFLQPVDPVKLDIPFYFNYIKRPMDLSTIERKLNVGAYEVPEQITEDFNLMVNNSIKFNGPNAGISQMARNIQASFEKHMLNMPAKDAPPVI
assay_summary: histone peptide array probed with recombinant GST-bromodomain, signal normalised to myc peptide control
Non-standard residues stand in square brackets, D forms with d. No end group written: not given here. Arg(Me2a) = CN(C)C(=N)NCCC[C@H](N)C(=O)O; pT = C[C@@H](OP(=O)(O)O)[C@H](N)C(=O)O; pS = N[C@@H](COP(=O)(O)O)C(=O)O; Lys(Me) = CNCCCC[C@H](N)C(=O)O
observable: binding score

Examples from the recorded data:
binder | binding score
ARTKQTARKSTGGKAPRKQ (A R T Kac Q T A Rme2a Kme1 S T G G K A P R K Q) | 0.00323
ARTKQTA[Arg(Me2a)][Lys(Me)][pS][pT]GGKAPRKQ | 0
A[Arg(Me2a)]TKQTARKSTGGKAPRKQ | 0.0095
ARTKQTARKSTGGKAPRKQ (A Rme2s T Kme3 Q T A Rme2a Kac S T G G K A P R K Q) | 0.0136
SGRGKGGKGLGKGGAKRHR (S G Rme2a G Kac G G K G L G K G G A K R H R) [H4 1-19] | 0

1: PDPAK(Ac)SAPAPKKGSK(Ac)KAVT [H2B 1-19]
2: ARTKQTARKSTGGKAPRKQ (A R T K Q T A R Kme3 S T G G K A P R K Q)
Compare the recorded binding score of 1 and 2 ; state which is larger. State your choice using its label.
1
